- assay.system: NR2F6 (Homo sapiens)
- Construct: expressed in transfected cells; also transient transfection
- method.summary: NR2F6 agonist screening, Firefly signal cmpd/DMSO
- Assay type: cell-based
- condition.info: 40 uM; clone F4
property.measured: Firefly F4, cmpd/DMSO (mean)
Answers are plain numbers.

Solved entries (count: 4):
molecule	assay.system	Firefly F4, cmpd/DMSO (mean)
CC1CCN(c2nc(NCCN3CCOCC3)nc(N3CC4CC(C3)c3cccc(=O)n3C4)n2)CC1 (centres unmarked) [Compound 43]	NR2F6 (Homo sapiens)	0.8
O=c1cccc2n1CC1CC2CN(c2nc(NCCC3=CCCCC3)nc(N3CCCC3)n2)C1 (centres unmarked) [Compound 32]	NR2F6 (Homo sapiens)	0.8
CC(C)Nc1nc(N2CCCC2)nc(N2CCn3c(cccc3=O)C2)n1 [Compound 35]	NR2F6 (Homo sapiens)	0.8
O=c1cccc2n1CC1CC2CN(c2nc(Cl)nc(NCCN3CCOCC3)n2)C1 (centres unmarked) [Compound 27]	NR2F6 (Homo sapiens)	1.0

q: GET /values?readout=Firefly F4, cmpd/DMSO (mean)&item= COc1ccc2nc(C(F)(F)F)c(C#N)c(NCCOc3ccc(Cl)cc3)c2c1 [Compound Z40]
a: 0.8

----------
Task for the reader: assign each of the following molecules its reported F4, Firefly/Renilla for S/B(F4) > 3.
- assay.system: NR2F6 (Homo sapiens)
- Construct: expressed in transfected cells; also transient transfection
- method.summary: NR2F6 agonist screening, Firefly signal cmpd/DMSO
- Format: cell-based
- condition.info: 1% FBS; 40 uM
Give bare numbers.

Examples with their reported F4, Firefly/Renilla for S/B(F4) > 3 follow.
molecule	property.measured	number
O=S1(=O)C[C@H](NCCCc2ccccc2)[C@@H](S(=O)(=O)c2ccc(Cl)cc2)C1	F4, Firefly/Renilla for S/B(F4) > 3	1.0
O=S1(=O)C[C@H](NCC2CCCO2)[C@@H](S(=O)(=O)c2cccs2)C1 (stereo partly drawn)	F4, Firefly/Renilla for S/B(F4) > 3	2.6
CC(C)OCCCN[C@H]1CS(=O)(=O)C[C@@H]1S(=O)(=O)c1ccc(Cl)cc1	F4, Firefly/Renilla for S/B(F4) > 3	1.1
C[C@@H]1C[C@H](C)CN([C@H]2CS(=O)(=O)C[C@@H]2S(=O)(=O)c2ccccc2)C1	F4, Firefly/Renilla for S/B(F4) > 3	1.6
COCCN[C@H]1CS(=O)(=O)C[C@@H]1S(=O)(=O)c1ccc(Cl)cc1	F4, Firefly/Renilla for S/B(F4) > 3	3.1

Moving on to the next molecule.
q: Request the reported F4, Firefly/Renilla for S/B(F4) > 3 associated with COCCN[C@H]1CS(=O)(=O)C[C@@H]1S(=O)(=O)c1cccs1
a: 2.2

----------
- Test system: HEK293 pGL4
- method.summary: Firefly_pGL signal, cmpd/DMSO (pGL4 control cells)
- Assay type: cell-based
- condition.info: Homo sapiens, HEK293, pGL4; 1% FBS; 2 uM; read-out: Firefly, pGL4, 1% FBS, cmpd/DMSO (mean)
Can you tell me fold induction at 2 µM for the items I'm about to list?
Numbers only.

Reference set, count: 5
structure.notation	number
CC(C)OCCCN[C@H]1CS(=O)(=O)C[C@@H]1S(=O)(=O)c1ccc(Cl)cc1	1
CC(C)N[C@H]1CS(=O)(=O)C[C@@H]1S(=O)(=O)c1ccc(Cl)cc1	1.2
O=S1(=O)C[C@H](NCc2ccco2)[C@@H](S(=O)(=O)c2cccs2)C1	1
COCCN[C@H]1CS(=O)(=O)C[C@@H]1S(=O)(=O)c1cccs1	1.4
O=S1(=O)C[C@H](NCCCc2ccccc2)[C@@H](S(=O)(=O)c2ccc(Cl)cc2)C1	1

Please give fold induction at 2 µM, item by item, for the list that follows.
1. COc1ccc(CCN[C@H]2CS(=O)(=O)C[C@@H]2S(=O)(=O)c2ccc(Cl)cc2)cc1OC
2. O=S1(=O)C[C@H](N2CCCC2)[C@@H](S(=O)(=O)c2ccc(Cl)cc2)C1
3. COCCCN[C@H]1CS(=O)(=O)C[C@@H]1S(=O)(=O)c1ccc(Cl)cc1

a:
1.2
2.5
1.8

----------
I'd appreciate it if you could supply Firefly LBD, cmpd/DMSO (mean) values for the items below.
- assay.system: NR2F6 LBD (Homo sapiens)
- Construct: expressed in transfected cells
- method.summary: NR2F6 LBD transient transfection
- Format: cell-based
- condition.info: 0.5 uM; LBD
Give bare numbers.

compound	property.measured	number
CC(C)N[C@H]1CS(=O)(=O)C[C@@H]1S(=O)(=O)c1ccc(Cl)cc1	Firefly LBD, cmpd/DMSO (mean)	1.2
O=S1(=O)C[C@H](NC2CCCCCC2)[C@@H](S(=O)(=O)c2ccc(Cl)cc2)C1	Firefly LBD, cmpd/DMSO (mean)	1.1
Cc1cc(S(=O)(=O)[C@H]2CS(=O)(=O)C[C@@H]2NCC2CCCO2)ccc1F (stereo partly drawn)	Firefly LBD, cmpd/DMSO (mean)	0.9
C[C@@H]1C[C@H](C)CN([C@H]2CS(=O)(=O)C[C@@H]2S(=O)(=O)c2cccs2)C1	Firefly LBD, cmpd/DMSO (mean)	1.1
O=S1(=O)C[C@H](NC2CCCCC2)[C@@H](S(=O)(=O)c2ccc(Cl)cc2)C1	Firefly LBD, cmpd/DMSO (mean)	1.4
CCCCN(C)[C@H]1CS(=O)(=O)C[C@@H]1S(=O)(=O)c1ccc(Cl)cc1	Firefly LBD, cmpd/DMSO (mean)	1.1
CC(C)CCN[C@H]1CS(=O)(=O)C[C@@H]1S(=O)(=O)c1cccs1	Firefly LBD, cmpd/DMSO (mean)	1.1
COCCN[C@H]1CS(=O)(=O)C[C@@H]1S(=O)(=O)c1cccs1	Firefly LBD, cmpd/DMSO (mean)	0.9

# batch: return Firefly LBD, cmpd/DMSO (mean) for each of the 5 compounds below
1. O=S1(=O)C[C@H](NC2CCCC2)[C@@H](S(=O)(=O)c2ccc(F)cc2)C1
2. C[C@@H]1C[C@H](C)CN([C@H]2CS(=O)(=O)C[C@@H]2S(=O)(=O)c2ccccc2)C1
3. CCC(C)N[C@H]1CS(=O)(=O)C[C@@H]1S(=O)(=O)c1ccc(Cl)cc1 (stereo partly drawn)
4. Cc1cccc(CN[C@H]2CS(=O)(=O)C[C@@H]2S(=O)(=O)c2ccc(Cl)cc2)c1
5. CC(=O)N1CCN([C@H]2CS(=O)(=O)C[C@@H]2S(=O)(=O)c2ccc(F)c(C)c2)CC1

a:
1. 1.1
2. 1.1
3. 1.0
4. 1.2
5. 0.9

----------
- assay.system: ERα (Homo sapiens)
- Construct: expressed in transfected cells
- Sequence (P03372 whole entry, species assumed): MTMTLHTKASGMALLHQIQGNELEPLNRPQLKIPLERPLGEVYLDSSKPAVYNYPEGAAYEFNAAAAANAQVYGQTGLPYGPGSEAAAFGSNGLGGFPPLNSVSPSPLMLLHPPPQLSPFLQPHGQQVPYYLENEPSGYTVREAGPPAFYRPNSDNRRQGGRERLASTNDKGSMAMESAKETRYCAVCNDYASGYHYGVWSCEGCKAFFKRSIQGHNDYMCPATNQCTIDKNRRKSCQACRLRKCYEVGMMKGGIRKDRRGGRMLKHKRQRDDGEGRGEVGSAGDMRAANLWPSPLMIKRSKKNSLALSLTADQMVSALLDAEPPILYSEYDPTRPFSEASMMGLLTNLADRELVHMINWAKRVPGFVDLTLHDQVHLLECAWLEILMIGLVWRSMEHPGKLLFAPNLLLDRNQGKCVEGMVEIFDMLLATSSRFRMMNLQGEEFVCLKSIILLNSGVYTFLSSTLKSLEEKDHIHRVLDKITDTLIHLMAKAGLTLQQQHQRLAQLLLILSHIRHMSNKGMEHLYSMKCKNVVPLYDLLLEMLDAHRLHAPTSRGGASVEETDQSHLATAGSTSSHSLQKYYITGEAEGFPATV
- method.summary: Counterscreening, Firefly signal with ERα transient transfection (Firefly_ERa)
- Assay type: cell-based
- condition.info: 10 uM
Field: Firefly ERalpha transient, cmpd/DMSO (mean). Provide a value for each of the molecules that follow.

molecule	result
COc1ccc(-c2cc3n(n2)C(N)=C(C#N)C(c2ccc(N4CCOCC4)cc2)(C(F)(F)F)N3)cc1OC (stereo not drawn) [Compound Z45]	0.6

Please state, for each entry, its recorded Firefly ERalpha transient, cmpd/DMSO (mean).
1. O=c1cccc2n1CCN(c1nc(NCC3CCCO3)nc(N3CCOCC3)n1)C2 (stereo not drawn) [Compound 33]
2. Cc1cc(C)c2ncc(C(=O)N(C)C)c(NCCCN(C)C)c2c1 [Compound Z31]
3. Cc1cc(C)c2ncc(C(=O)OC(C)C)c(NCCCN(C)C)c2c1 [Compound Z29]
4. O=c1cccc2n1CC1CC2CN(c2nc(N3CCCC3)nc(N3CCCC3)n2)C1 (stereo not drawn) [Compound 26]
5. CC(C)Nc1nc(N2CCOCC2)nc(N2CCn3c(cccc3=O)C2)n1 [Compound 34]
6. COc1ccc2nc(C(F)(F)F)c(C#N)c(NCc3ccc(Cl)cc3)c2c1 [Compound Z38]

a:
[1.3, 1.6, 1.2, 1.3, 1.2, 0.5]

Need Firefly ERalpha transient, cmpd/DMSO (mean) for each of these molecules.
1. COc1ccc2nc(C(F)(F)F)c(C#N)c(N3CCN(C)CC3)c2c1 [Compound Z41]
2. Cc1cc(C)c2ncc(C(=O)N3CCCC3)c(NCCCN(C)C)c2c1 [Compound Z32]
3. CCOC(=O)c1cnc2ccc(C)cc2c1NCCCN(C)C [Compound Z33]
4. CCCCCCNc1nc(OCC)nc(N2CCn3c(cccc3=O)C2)n1 [Compound 40]

a:
1. 1.4
2. 0.8
3. 1.8
4. 1.0

q: If you can, please state the reported Firefly ERalpha transient, cmpd/DMSO (mean) value of O=c1cccc2n1CC1CC2CN(c2nc(NCCC3=CCCCC3)nc(N3CCCC3)n2)C1 (stereo not drawn) [Compound 32] .
a: 1.2

----------
- assay.system: NR2F6 (Homo sapiens, UniProt P10588)
- Construct: expressed in transfected cells; also transient transfection
- Sequence (P10588 whole entry): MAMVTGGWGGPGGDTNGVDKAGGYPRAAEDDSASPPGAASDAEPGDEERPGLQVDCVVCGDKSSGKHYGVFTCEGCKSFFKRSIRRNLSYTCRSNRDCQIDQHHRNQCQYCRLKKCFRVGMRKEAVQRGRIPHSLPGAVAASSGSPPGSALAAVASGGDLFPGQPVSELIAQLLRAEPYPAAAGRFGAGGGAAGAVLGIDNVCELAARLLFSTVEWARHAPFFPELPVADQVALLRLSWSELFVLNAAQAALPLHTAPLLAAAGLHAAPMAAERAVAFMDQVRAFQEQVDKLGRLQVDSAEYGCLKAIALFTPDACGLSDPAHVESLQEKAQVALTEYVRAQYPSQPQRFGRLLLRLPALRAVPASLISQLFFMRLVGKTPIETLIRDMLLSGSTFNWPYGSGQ
- method.summary: NR2F6 agonist screening, Firefly signal cmpd/DMSO
- Format: cell-based
- condition.info: F4; 1% FBS; 2 uM
property.measured: Firefly, F4, 1% FBS, cmpd/DMSO (mean)
One number for each entry.

Guide cases for Firefly, F4, 1% FBS, cmpd/DMSO (mean), answers given:
compound	Firefly, F4, 1% FBS, cmpd/DMSO (mean)
O=S1(=O)C[C@H](NCC2CCCO2)[C@@H](S(=O)(=O)c2cccs2)C1 (stereo partly drawn)	1.2
C[C@@H]1C[C@H](C)CN([C@H]2CS(=O)(=O)C[C@@H]2S(=O)(=O)c2ccccc2)C1	0.9
C[C@@H]1C[C@H](C)CN([C@H]2CS(=O)(=O)C[C@@H]2S(=O)(=O)c2cccs2)C1	1.6
CC(=O)N1CCN([C@H]2CS(=O)(=O)C[C@@H]2S(=O)(=O)c2ccc(F)c(C)c2)CC1	0.9
O=S1(=O)C[C@H](NC2CCCC2)[C@@H](S(=O)(=O)c2ccc(F)cc2)C1	1.0

Consider now this further compound.
q: API: value(readout= Firefly, F4, 1% FBS, cmpd/DMSO (mean), system= NR2F6 (Homo sapiens, UniProt P10588), query= O=S1(=O)C[C@H](NC2CCCCCC2)[C@@H](S(=O)(=O)c2ccc(Cl)cc2)C1 )
a: 1.2

Source listed as patent US11377442B2.
